# Subject of test: UniProt:P11388
# Measurement notes: Inhibition of human recombinant topoisomerase-2 alpha assessed as conversion of super-coiled plasmid DNA pBR322 to relaxed DNA at 100 uM after 30 mins by ethidium bromide staining-based agarose gel electrophoresis relative to etoposide

{"Structure smiles": "c1ccc(-c2cc(-c3cccnc3)c3c(n2)-c2ccsc2CC3)cc1", "Ratio": "< 0.2"}
{"Structure smiles": "c1ccc(-c2cc(-c3ccccn3)nc3c2oc2ccccc23)cc1", "Ratio": "< 0.2"}
{"Structure smiles": "c1ccc(-c2cc(-c3cccnc3)nc3c2COc2ccccc2-3)nc1", "Ratio": "< 0.2"}
{"Structure smiles": "c1coc(-c2cc(-c3cccs3)c3c(n2)-c2ccccc2C3)c1", "Ratio": 1}

----------
Below, each entry is listed alongside its reported inhibition.
# Subject of test: DNA topoisomerase 2-alpha (Homo sapiens)
# Measurement notes: Inhibition of human recombinant topoisomerase-2 alpha assessed as conversion of super-coiled plasmid DNA pBR322 to relaxed DNA at 100 uM after 30 mins by ethidium bromide staining-based agarose gel electrophoresis (reference value: 83.7%)
Quantity measured: inhibition

{"Structure smiles": "c1csc(-c2cc(-c3ccoc3)c3c(n2)-c2ccccc2C3)c1", "Quantity measured": "inhibition", "Result": "100%"}
{"Structure smiles": "c1coc(-c2cc(-c3cccs3)c3c(n2)-c2ccccc2C3)c1", "Quantity measured": "inhibition", "Result": "83.9%"}
{"Structure smiles": "c1ccc2c(c1)Cc1c(-c3ccoc3)cc(-c3ccsc3)nc1-2", "Quantity measured": "inhibition", "Result": "95.9%"}
{"Structure smiles": "c1coc(-c2cc(-c3ccsc3)nc3c2Cc2ccccc2-3)c1", "Quantity measured": "inhibition", "Result": "84.1%"}
{"Structure smiles": "c1coc(-c2cc(-c3ccsc3)c3c(n2)-c2ccccc2C3)c1", "Quantity measured": "inhibition", "Result": "100%"}

----------
# Subject of test: DNA topoisomerase 1 (Homo sapiens) (UniProt P11387)
# Sequence (P11387 whole entry): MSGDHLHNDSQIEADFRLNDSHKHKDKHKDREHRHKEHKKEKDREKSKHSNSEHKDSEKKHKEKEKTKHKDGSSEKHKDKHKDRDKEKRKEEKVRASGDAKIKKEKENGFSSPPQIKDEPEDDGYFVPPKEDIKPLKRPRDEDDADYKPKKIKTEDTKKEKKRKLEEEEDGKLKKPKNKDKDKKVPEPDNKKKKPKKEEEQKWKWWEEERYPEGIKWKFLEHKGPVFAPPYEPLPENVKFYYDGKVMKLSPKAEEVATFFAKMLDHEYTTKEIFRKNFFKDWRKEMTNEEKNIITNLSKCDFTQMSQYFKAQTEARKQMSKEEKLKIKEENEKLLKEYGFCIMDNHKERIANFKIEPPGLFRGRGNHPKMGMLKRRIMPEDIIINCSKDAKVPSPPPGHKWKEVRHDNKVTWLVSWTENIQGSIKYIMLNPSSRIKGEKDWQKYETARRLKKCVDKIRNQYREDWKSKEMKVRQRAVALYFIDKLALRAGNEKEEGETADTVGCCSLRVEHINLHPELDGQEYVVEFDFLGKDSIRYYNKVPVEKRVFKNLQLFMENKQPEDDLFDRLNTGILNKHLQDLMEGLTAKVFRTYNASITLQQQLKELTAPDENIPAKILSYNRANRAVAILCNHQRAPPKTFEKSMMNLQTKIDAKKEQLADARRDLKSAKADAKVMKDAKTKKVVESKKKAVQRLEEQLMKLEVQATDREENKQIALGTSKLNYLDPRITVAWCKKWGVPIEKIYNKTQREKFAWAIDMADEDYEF
# Measurement notes: Inhibition of human recombinant topoisomerase-1 assessed as conversion of super-coiled plasmid DNA pBR322 to relaxed DNA at 20 uM after 30 mins by ethidium bromide staining-based agarose gel electrophoresis (reference value: 25.9%)
Below, each entry is listed alongside its reported inhibition.
Quantity measured: inhibition (%)

{"Structure smiles": "c1coc(-c2cc(-c3cccs3)nc3c2Cc2ccccc2-3)c1", "Quantity measured": "inhibition", "Endpoint unit": "%", "Numeric readout": 3.9}
{"Structure smiles": "c1ccc(-c2cc(-c3ccco3)nc3c2Cc2ccccc2-3)cc1", "Quantity measured": "inhibition", "Endpoint unit": "%", "Numeric readout": 5.7}
{"Structure smiles": "c1ccc(-c2cc(-c3cccs3)c3c(n2)-c2ccccc2C3)nc1", "Quantity measured": "inhibition", "Endpoint unit": "%", "Numeric readout": 12}
{"Structure smiles": "c1coc(-c2cc(-c3ccco3)c3c(n2)-c2ccccc2C3)c1", "Quantity measured": "inhibition", "Endpoint unit": "%", "Numeric readout": 6.4}

----------
# Subject of test: DNA topoisomerase 1 (Homo sapiens) (UniProt P11387)
# Measurement notes: Inhibition of human recombinant topoisomerase-1 assessed as conversion of super-coiled plasmid DNA pBR322 to relaxed DNA at 100 uM after 30 mins by ethidium bromide staining-based agarose gel electrophoresis (reference value: 51.5%)
So basically: inhibition at 2% or higher? That is T. Lower than 2%? That is F.

{"Structure smiles": "c1ccc2c(c1)Cc1c(-c3ccoc3)cc(-c3ccsc3)nc1-2", "Qualitative label": "F"}
{"Structure smiles": "c1csc(-c2cc(-c3ccoc3)c3c(n2)-c2ccccc2C3)c1", "Qualitative label": "F"}
{"Structure smiles": "c1coc(-c2cc(-c3ccsc3)c3c(n2)-c2ccccc2C3)c1", "Qualitative label": "F"}
{"Structure smiles": "c1coc(-c2cc(-c3ccsc3)nc3c2Cc2ccccc2-3)c1", "Qualitative label": "T"}

----------
# Subject of test: UniProt P11387
# Measurement notes: Inhibition of human recombinant topoisomerase-1 assessed as conversion of super-coiled plasmid DNA pBR322 to relaxed DNA at 100 uM after 30 mins by ethidium bromide staining-based agarose gel electrophoresis relative to camptothecin

{"Structure smiles": "c1ccc(-c2cc(-c3ccco3)nc3c2Cc2ccccc2-3)cc1", "Qual": "=", "Ratio": 0.91}
{"Structure smiles": "c1coc(-c2cc(-c3ccco3)c3c(n2)-c2ccccc2C3)c1", "Qual": "=", "Ratio": 0.85}
{"Structure smiles": "c1ccc(-c2cc(-c3ccsc3)nc3c2COc2ccccc2-3)cc1", "Qual": "=", "Ratio": 1.67}
{"Structure smiles": "c1ccc(-c2cc(-c3cccnc3)nc3c2COc2ccccc2-3)nc1", "Qual": "=", "Ratio": 1.58}
{"Structure smiles": "c1ccc2c(c1)OCc1c(-c3ccsc3)cc(-c3ccsc3)nc1-2", "Qual": "=", "Ratio": 1.42}
{"Structure smiles": "c1csc(-c2cc(-c3ccoc3)c3c(n2)-c2ccccc2C3)c1", "Qual": "<", "Ratio": 0.2}
{"Structure smiles": "c1coc(-c2cc(-c3cccs3)nc3c2CCc2ccccc2-3)c1", "Qual": "=", "Ratio": 0.97}
{"Structure smiles": "c1cncc(-c2cc(-c3ccncc3)c3c(n2)-c2ccsc2CC3)c1", "Qual": "=", "Ratio": 0.49}
{"Structure smiles": "c1ccc2c(c1)Cc1c(-c3ccoc3)cc(-c3ccsc3)nc1-2", "Qual": "<", "Ratio": 0.2}
{"Structure smiles": "c1coc(-c2cc(-c3cccs3)nc3c2Cc2ccccc2-3)c1", "Qual": "=", "Ratio": 1.69}
{"Structure smiles": "c1ccc(-c2cc(-c3cccnc3)c3c(n2)-c2ccsc2CC3)cc1", "Qual": "=", "Ratio": 1.15}
{"Structure smiles": "c1ccc(-c2cc(-c3ccccn3)nc3c2oc2ccccc23)cc1", "Qual": "=", "Ratio": 1.15}
{"Structure smiles": "c1ccc(-c2cc(-c3ccco3)nc3c2Cc2ccccc2-3)nc1", "Qual": "=", "Ratio": 0.65}
{"Structure smiles": "c1coc(-c2cc(-c3ccsc3)c3c(n2)-c2ccccc2C3)c1", "Qual": "<", "Ratio": 0.2}
{"Structure smiles": "c1coc(-c2cc(-c3ccoc3)c3c(n2)-c2ccccc2OC3)c1", "Qual": "=", "Ratio": 1.2}
{"Structure smiles": "c1coc(-c2cc(-c3ccoc3)c3c(n2)-c2ccccc2C3)c1", "Qual": "=", "Ratio": 0.83}
{"Structure smiles": "c1ccc(-c2cc(-c3ccco3)c3c(n2)-c2ncccc2CC3)nc1", "Qual": "=", "Ratio": 1.25}
{"Structure smiles": "c1coc(-c2cc(-c3ccsc3)nc3c2Cc2ccccc2-3)c1", "Qual": "<", "Ratio": 0.2}
{"Structure smiles": "c1ccc(-c2cc(-c3ccco3)nc3c2oc2ccccc23)cc1", "Qual": "<", "Ratio": 0.2}
{"Structure smiles": "c1csc(-c2cc(-c3ccsc3)c3c(n2)-c2ccccc2C3)c1", "Qual": "<", "Ratio": 0.2}
{"Structure smiles": "c1cncc(-c2cc(-c3ccoc3)c3c(n2)-c2ncccc2CC3)c1", "Qual": "=", "Ratio": 1.36}
{"Structure smiles": "c1ccc2c(c1)Cc1c(-c3ccsc3)cc(-c3ccsc3)nc1-2", "Qual": "=", "Ratio": 1.45}
{"Structure smiles": "c1ccc(-c2cc(-c3ccsc3)nc3c2Cc2ccccc2-3)cc1", "Qual": "<", "Ratio": 0.2}
{"Structure smiles": "c1coc(-c2cc(-c3cccs3)c3c(n2)-c2ccccc2C3)c1", "Qual": "<", "Ratio": 0.2}
{"Structure smiles": "c1csc(-c2cc(-c3ccoc3)c3c(n2)-c2ccccc2CC3)c1", "Qual": "=", "Ratio": 0.53}

----------
# Subject of test: DNA topoisomerase 2-alpha (Homo sapiens) (UniProt P11388)
# Sequence (P11388 whole entry): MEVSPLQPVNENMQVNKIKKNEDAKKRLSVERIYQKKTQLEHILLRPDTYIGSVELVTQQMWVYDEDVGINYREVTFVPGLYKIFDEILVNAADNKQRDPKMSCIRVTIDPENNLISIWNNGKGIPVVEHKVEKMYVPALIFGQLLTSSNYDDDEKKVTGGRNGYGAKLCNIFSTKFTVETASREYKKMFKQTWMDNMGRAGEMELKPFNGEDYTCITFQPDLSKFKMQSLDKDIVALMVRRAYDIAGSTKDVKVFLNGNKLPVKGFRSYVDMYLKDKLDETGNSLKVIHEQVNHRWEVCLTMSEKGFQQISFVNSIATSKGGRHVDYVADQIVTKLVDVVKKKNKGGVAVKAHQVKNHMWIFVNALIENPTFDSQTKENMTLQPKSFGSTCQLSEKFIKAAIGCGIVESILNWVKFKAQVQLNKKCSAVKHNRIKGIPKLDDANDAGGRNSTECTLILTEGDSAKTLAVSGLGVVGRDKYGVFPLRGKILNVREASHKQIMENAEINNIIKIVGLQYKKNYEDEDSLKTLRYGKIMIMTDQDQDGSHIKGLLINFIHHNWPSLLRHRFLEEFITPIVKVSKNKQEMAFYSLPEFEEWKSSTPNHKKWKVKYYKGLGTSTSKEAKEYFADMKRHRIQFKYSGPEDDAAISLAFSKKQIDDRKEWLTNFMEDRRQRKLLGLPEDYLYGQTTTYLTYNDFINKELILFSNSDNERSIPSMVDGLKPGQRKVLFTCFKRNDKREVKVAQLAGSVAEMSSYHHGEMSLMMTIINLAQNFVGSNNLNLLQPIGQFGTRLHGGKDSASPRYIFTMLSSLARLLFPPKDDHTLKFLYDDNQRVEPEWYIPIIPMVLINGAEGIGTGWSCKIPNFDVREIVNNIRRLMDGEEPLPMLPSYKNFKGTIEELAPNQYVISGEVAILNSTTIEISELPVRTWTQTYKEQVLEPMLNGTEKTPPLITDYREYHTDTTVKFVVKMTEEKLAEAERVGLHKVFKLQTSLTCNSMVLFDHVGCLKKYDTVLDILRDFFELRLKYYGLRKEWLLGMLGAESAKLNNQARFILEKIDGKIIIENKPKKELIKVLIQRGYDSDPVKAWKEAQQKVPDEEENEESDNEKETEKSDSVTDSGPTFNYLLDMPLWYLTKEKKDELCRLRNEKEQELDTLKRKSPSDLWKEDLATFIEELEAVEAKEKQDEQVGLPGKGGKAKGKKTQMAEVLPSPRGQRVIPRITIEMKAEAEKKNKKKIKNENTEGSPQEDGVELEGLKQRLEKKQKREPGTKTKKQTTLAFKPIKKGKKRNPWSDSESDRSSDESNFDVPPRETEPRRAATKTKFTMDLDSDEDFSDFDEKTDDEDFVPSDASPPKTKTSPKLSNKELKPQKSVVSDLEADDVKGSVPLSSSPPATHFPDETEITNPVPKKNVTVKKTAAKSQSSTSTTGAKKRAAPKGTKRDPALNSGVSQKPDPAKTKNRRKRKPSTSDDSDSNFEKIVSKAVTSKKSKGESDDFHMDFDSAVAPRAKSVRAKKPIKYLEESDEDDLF
# Measurement notes: Inhibition of human recombinant topoisomerase-2 alpha assessed as conversion of super-coiled plasmid DNA pBR322 to relaxed DNA at 100 uM after 30 mins by ethidium bromide staining-based agarose gel electrophoresis relative to etoposide

{"Structure smiles": "c1coc(-c2cc(-c3ccoc3)c3c(n2)-c2ccccc2C3)c1", "Subject of test": "DNA topoisomerase 2-alpha (Homo sapiens) (UniProt P11388)", "Qual": "=", "Ratio": 1.14}
{"Structure smiles": "c1ccc2c(c1)Cc1c(-c3ccoc3)cc(-c3ccsc3)nc1-2", "Subject of test": "DNA topoisomerase 2-alpha (Homo sapiens) (UniProt P11388)", "Qual": "=", "Ratio": 1.15}
{"Structure smiles": "c1coc(-c2cc(-c3ccsc3)c3c(n2)-c2ccccc2C3)c1", "Subject of test": "DNA topoisomerase 2-alpha (Homo sapiens) (UniProt P11388)", "Qual": "=", "Ratio": 1.19}
{"Structure smiles": "c1coc(-c2cc(-c3ccco3)c3oc4ccccc4c3n2)c1", "Subject of test": "DNA topoisomerase 2-alpha (Homo sapiens) (UniProt P11388)", "Qual": "=", "Ratio": 1.11}
{"Structure smiles": "c1ccc(-c2cc(-c3ccco3)nc3c2oc2ccccc23)cc1", "Subject of test": "DNA topoisomerase 2-alpha (Homo sapiens) (UniProt P11388)", "Qual": "=", "Ratio": 1.11}
{"Structure smiles": "c1ccc(-c2cc(-c3ccco3)c3c(n2)-c2ncccc2CC3)nc1", "Subject of test": "DNA topoisomerase 2-alpha (Homo sapiens) (UniProt P11388)", "Qual": "<", "Ratio": 0.2}
{"Structure smiles": "c1coc(-c2cc(-c3cccs3)nc3c2Cc2ccccc2-3)c1", "Subject of test": "DNA topoisomerase 2-alpha (Homo sapiens) (UniProt P11388)", "Qual": "=", "Ratio": 1.25}
{"Structure smiles": "c1csc(-c2cc(-c3ccoc3)c3c(n2)-c2ccccc2CC3)c1", "Subject of test": "DNA topoisomerase 2-alpha (Homo sapiens) (UniProt P11388)", "Qual": "<", "Ratio": 0.2}
{"Structure smiles": "c1ccc2c(c1)Cc1c(-c3ccsc3)cc(-c3ccsc3)nc1-2", "Subject of test": "DNA topoisomerase 2-alpha (Homo sapiens) (UniProt P11388)", "Qual": "=", "Ratio": 1.14}
{"Structure smiles": "c1ccc(-c2cc(-c3ccco3)nc3c2Cc2ccccc2-3)cc1", "Subject of test": "DNA topoisomerase 2-alpha (Homo sapiens) (UniProt P11388)", "Qual": "=", "Ratio": 0.58}
{"Structure smiles": "c1ccc(-c2cc(-c3ccsc3)nc3c2COc2ccccc2-3)cc1", "Subject of test": "DNA topoisomerase 2-alpha (Homo sapiens) (UniProt P11388)", "Qual": "=", "Ratio": 1.13}
{"Structure smiles": "c1cncc(-c2cc(-c3ccncc3)c3c(n2)-c2ccsc2CC3)c1", "Subject of test": "DNA topoisomerase 2-alpha (Homo sapiens) (UniProt P11388)", "Qual": "<", "Ratio": 0.2}
{"Structure smiles": "c1cncc(-c2cc(-c3ccoc3)c3c(n2)-c2ncccc2CC3)c1", "Subject of test": "DNA topoisomerase 2-alpha (Homo sapiens) (UniProt P11388)", "Qual": "<", "Ratio": 0.2}
{"Structure smiles": "c1ccc(-c2cc(-c3ccsc3)nc3c2Cc2ccccc2-3)cc1", "Subject of test": "DNA topoisomerase 2-alpha (Homo sapiens) (UniProt P11388)", "Qual": "=", "Ratio": 0.83}
{"Structure smiles": "c1ccc2c(c1)OCc1c(-c3ccsc3)cc(-c3ccsc3)nc1-2", "Subject of test": "DNA topoisomerase 2-alpha (Homo sapiens) (UniProt P11388)", "Qual": "=", "Ratio": 0.9}
{"Structure smiles": "c1csc(-c2cc(-c3ccoc3)c3c(n2)-c2ccccc2C3)c1", "Subject of test": "DNA topoisomerase 2-alpha (Homo sapiens) (UniProt P11388)", "Qual": "=", "Ratio": 1.19}
{"Structure smiles": "c1coc(-c2cc(-c3ccco3)c3c(n2)-c2ccccc2C3)c1", "Subject of test": "DNA topoisomerase 2-alpha (Homo sapiens) (UniProt P11388)", "Qual": "=", "Ratio": 1.38}
{"Structure smiles": "c1coc(-c2cc(-c3ccoc3)c3c(n2)-c2ccccc2OC3)c1", "Subject of test": "DNA topoisomerase 2-alpha (Homo sapiens) (UniProt P11388)", "Qual": "=", "Ratio": 0.89}
{"Structure smiles": "c1ccc(-c2cc(-c3ccco3)c3oc4ccccc4c3n2)cc1", "Subject of test": "DNA topoisomerase 2-alpha (Homo sapiens) (UniProt P11388)", "Qual": "=", "Ratio": 1.24}
{"Structure smiles": "c1coc(-c2cc(-c3ccsc3)nc3c2Cc2ccccc2-3)c1", "Subject of test": "DNA topoisomerase 2-alpha (Homo sapiens) (UniProt P11388)", "Qual": "=", "Ratio": 1}
{"Structure smiles": "c1coc(-c2cc(-c3cccs3)nc3c2CCc2ccccc2-3)c1", "Subject of test": "DNA topoisomerase 2-alpha (Homo sapiens) (UniProt P11388)", "Qual": "<", "Ratio": 0.2}
{"Structure smiles": "c1csc(-c2cc(-c3ccsc3)c3c(n2)-c2ccccc2C3)c1", "Subject of test": "DNA topoisomerase 2-alpha (Homo sapiens) (UniProt P11388)", "Qual": "=", "Ratio": 1.14}
{"Structure smiles": "c1ccc(-c2cc(-c3ccco3)nc3c2Cc2ccccc2-3)nc1", "Subject of test": "DNA topoisomerase 2-alpha (Homo sapiens) (UniProt P11388)", "Qual": "=", "Ratio": 1.14}
